- Tested on: MDR S. aureus
- ASSAY PROTOCOL: microbe, parasite or virus in culture
- ASSAY SETUP: CLSI broth microdilution; CAMHB with 50 mg/L Ca2+, 10 mg/L Mg2+; 5 × 10^5 CFU/ml; 18 h 37 °C; triplicate; strain KCCM 40510
- Experimental: MDR Pseudomonas aeruginosa (CCARM 2180) was purchased from the Culture Collection of Antimicrobial Resistance Microbes (Seoul, Republic of Korea). […] To assess antimicrobial activity, the MIC50 and MIC90 were measured using broth microdilution following CLSI guidelines. […] MICs in albumin and acetic acid solutions were measured using the same protocol but with 0.2% bovine serum albumin (Bovogen, Keilor, Australia), 0.01% acetic acid (Merck, New Jersey, USA), and CAMHB with both calcium and magnesium. […]
Square brackets hold non-standard residues; d marks the D form. Peptide text beside a SMILES is read from it.
ENDPOINT: Minimum inhibitory concentrations, MDR S. aureus (µM)
Write the answer as a number in µM, unit excluded.

Illustrative cases are given below, each with its answer.
CC[C@@H](C)[C@@H](NC(=O)[C@@H](Cc1c[nH]c2ccccc12)NC(=O)[C@H](NC(=O)[C@@H](CC(C)C)NC(=O)[C@@H](Cc1c[nH]c2ccccc12)NC(=O)[C@H](N)CCCCN)C(C)C)C(=O)N[C@H](Cc1c[nH]c2ccccc12)C(=O)N[C@H](CCCNC(=N)N)C(=O)N[C@H](CCCNC(=N)N)C(=O)N[C@H](CCCNC(=N)N)C(N)=O [WCopW35] (H-[dK][dW][dL][dV][dW][dI][dW][dR][dR][dR]-NH2) :: 0.63
CC[C@@H](C)[C@@H](NC(=O)[C@@H](Cc1c[nH]c2ccccc12)NC(=O)[C@@H](CCCNC(=N)N)NC(=O)[C@@H](CCCNC(=N)N)NC(=O)[C@H](N)CCCNC(=N)N)C(=O)N[C@H](Cc1c[nH]c2ccccc12)C(=O)N[C@@H](C(=O)N[C@@H](C(=O)N[C@H](Cc1c[nH]c2ccccc12)C(N)=O)[C@H](C)CC)[C@H](C)CC [WCopW60] (H-[dR][dR][dR][dW][dI][dW][dI][dI][dW]-NH2) :: 0.63

Please look at the following molecule next.
Sample CC[C@@H](C)[C@@H](NC(=O)[C@@H](Cc1c[nH]c2ccccc12)NC(=O)[C@@H](CC(C)C)NC(=O)[C@@H](CC(C)C)NC(=O)[C@H](N)Cc1c[nH]c2ccccc12)C(=O)NCC(=O)N[C@H](CC(C)C)C(=O)N[C@H](CCCNC(=N)N)C(=O)N[C@H](CCCCN)C(=O)N[C@H](CCCCN)C(N)=O [WCopW8] (H-[dW][dL][dL][dW][dI]G[dL][dR][dK][dK]-NH2) — what was its Minimum inhibitory concentrations, MDR S. aureus? 2.5

---

- Tested on: human red blood cells
- ASSAY PROTOCOL: Hemolytic activity
- Type: cell-based
- ASSAY SETUP: red cells of human, 18 h, 100
Square brackets hold non-standard residues; d marks the D form. Peptide text beside a SMILES is read from it.
ENDPOINT: Hemolysis percent, 100 μM (%)
Please reply with the bare figure in % and do not write the unit itself.

Examples with answers:
CC[C@@H](C)[C@@H](NC(=O)[C@@H](Cc1c[nH]c2ccccc12)NC(=O)[C@@H](CC(C)C)NC(=O)[C@@H](CC(C)C)NC(=O)[C@H](N)Cc1c[nH]c2ccccc12)C(=O)NCC(=O)N[C@H](CC(C)C)C(=O)N[C@H](CCCNC(=N)N)C(=O)N[C@H](CCCCN)C(=O)N[C@H](CCCCN)C(N)=O [WCopW8] (H-[dW][dL][dL][dW][dI]G[dL][dR][dK][dK]-NH2) :: 15.04
CC[C@@H](C)[C@@H](NC(=O)[C@@H](Cc1c[nH]c2ccccc12)NC(=O)[C@@H](CCCNC(=N)N)NC(=O)[C@@H](CCCNC(=N)N)NC(=O)[C@H](N)CCCNC(=N)N)C(=O)N[C@H](Cc1c[nH]c2ccccc12)C(=O)N[C@@H](C(=O)N[C@@H](C(=O)N[C@H](Cc1c[nH]c2ccccc12)C(N)=O)[C@H](C)CC)[C@H](C)CC [WCopW60] (H-[dR][dR][dR][dW][dI][dW][dI][dI][dW]-NH2) :: 15.17
CC[C@@H](C)[C@@H](NC(=O)[C@@H](Cc1c[nH]c2ccccc12)NC(=O)[C@@H](CC(C)C)NC(=O)[C@@H](CC(C)C)NC(=O)[C@H](N)Cc1c[nH]c2ccccc12)C(=O)N[C@H](C)C(=O)N[C@H](CC(C)C)C(=O)N[C@H](CCCNC(=N)N)C(=O)N[C@H](CCCCN)C(=O)N[C@H](CCCCN)C(=O)N[C@H](CCCNC(=N)N)C(N)=O [WCopW4] (H-[dW][dL][dL][dW][dI][dA][dL][dR][dK][dK][dR]-NH2) :: 18.84
CC(C)C[C@@H](NC(=O)[C@H](N)Cc1c[nH]c2ccccc12)C(=O)N[C@H](CC(C)C)C(=O)N[C@H](Cc1c[nH]c2ccccc12)C(=O)N[C@H](C)C(=O)NCC(=O)N[C@H](C)C(=O)N[C@H](CCCNC(=N)N)C(=O)N[C@H](CCCCN)C(=O)N[C@H](CCCCN)C(=O)N[C@H](CCCNC(=N)N)C(N)=O [WCopW21] (H-[dW][dL][dL][dW][dA]G[dA][dR][dK][dK][dR]-NH2) :: 1.74

Please examine the following record next.
Query: Hemolysis percent, 100 μM; subject: CC[C@@H](C)[C@@H](NC(=O)[C@@H](Cc1c[nH]c2ccccc12)NC(=O)[C@H](NC(=O)[C@@H](CC(C)C)NC(=O)[C@H](N)Cc1c[nH]c2ccccc12)C(C)C)C(=O)N[C@H](Cc1c[nH]c2ccccc12)C(=O)N[C@H](CCCNC(=N)N)C(=O)N[C@H](CCCNC(=N)N)C(N)=O [WCopW32] (H-[dW][dL][dV][dW][dI][dW][dR][dR]-NH2) 4.53
